Some sequences, each annotated with its measured phosphorylation enrichment.
Target: EPHB1 (UniProt P54762)
Sequence (P54762 whole entry, looked up): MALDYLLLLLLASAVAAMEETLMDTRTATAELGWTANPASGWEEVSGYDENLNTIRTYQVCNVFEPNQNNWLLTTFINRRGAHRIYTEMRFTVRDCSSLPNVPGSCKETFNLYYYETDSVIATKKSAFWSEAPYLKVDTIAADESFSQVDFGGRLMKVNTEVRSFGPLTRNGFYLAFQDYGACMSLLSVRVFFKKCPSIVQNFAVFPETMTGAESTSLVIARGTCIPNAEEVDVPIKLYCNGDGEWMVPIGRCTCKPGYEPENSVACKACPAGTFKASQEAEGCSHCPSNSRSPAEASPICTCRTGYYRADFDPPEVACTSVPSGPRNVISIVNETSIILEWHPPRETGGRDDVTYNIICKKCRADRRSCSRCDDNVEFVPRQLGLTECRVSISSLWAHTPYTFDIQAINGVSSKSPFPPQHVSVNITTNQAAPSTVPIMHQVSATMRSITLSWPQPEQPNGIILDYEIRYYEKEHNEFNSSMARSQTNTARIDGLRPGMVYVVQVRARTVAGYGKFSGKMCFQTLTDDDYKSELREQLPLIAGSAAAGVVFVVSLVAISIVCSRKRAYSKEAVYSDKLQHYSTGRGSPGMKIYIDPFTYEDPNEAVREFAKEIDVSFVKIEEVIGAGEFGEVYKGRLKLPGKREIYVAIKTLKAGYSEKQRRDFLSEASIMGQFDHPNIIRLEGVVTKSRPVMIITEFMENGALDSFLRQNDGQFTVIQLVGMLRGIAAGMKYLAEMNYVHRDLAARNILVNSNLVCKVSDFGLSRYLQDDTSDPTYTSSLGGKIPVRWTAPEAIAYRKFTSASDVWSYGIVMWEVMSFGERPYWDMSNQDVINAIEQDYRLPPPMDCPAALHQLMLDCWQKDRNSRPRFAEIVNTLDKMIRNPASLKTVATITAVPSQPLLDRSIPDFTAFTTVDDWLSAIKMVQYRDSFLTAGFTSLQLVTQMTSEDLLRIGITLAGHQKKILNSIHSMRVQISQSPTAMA
Assay: phosphorylation enrichment, bacterial display (enrichment ratio); higher = better substrate or ligand; peptides without Tyr show the background;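 note: 11-residue human phosphosite peptides and single-mutation variants displayed on the E. coli surface, counted by deep sequencing, each peptide's frequency after selection divided by its frequency in the unselected input library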;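 note: frequency after pTyr selection over input frequency; kinase dosed for 20-30% of maximal phosphorylation in three min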
Number only, no unit.

The cases that follow already have their phosphorylation enrichment on record.
{"polymer sequence": "ADSLRYIYPKL [EIF2B3_Y92]", "phosphorylation enrichment": 0.416}
{"polymer sequence": "AVLSLCASGRT [ACTA2_Y145_Y145C]", "phosphorylation enrichment": 0.58}
{"polymer sequence": "NRLTDYFEPLL [BBS10_Y536_YF]", "phosphorylation enrichment": 2.54}

Enquiry: Give the reported phosphorylation enrichment for SARVRYLMAEK [LDHB_Y173_F171V] (system: EPHB1 (UniProt P54762)).
Return: 0.46

Enquiry: Give the reported phosphorylation enrichment for YQGGTYSKAST [FGG_Y380] (system: EPHB1 (UniProt P54762)).
Return: 0.33

Enquiry: Give the reported phosphorylation enrichment for LERYIYNPEEF [HLA-DPB1_Y59_R61P] (system: EPHB1 (UniProt P54762)).
Return: 0.783

Enquiry: Give the reported phosphorylation enrichment for AIGCEYSEINI [SIGLEC12_Y588_Y586C] (system: EPHB1 (UniProt P54762)).
Return: 1.24
